Procedure Details: Inhibition of cytosolic phospholipase A2alpha by GLU micelle assay
Exercise: state measured pIC50 for each of the molecules provided.
Note on pIC50: it is the negative log10 of concentration, concentration in mol/L.

Asked: Return the recorded pIC50 value; entry: O=C(O)c1ccc(OC/C=C/Cn2c(=O)n(C(c3ccccc3)c3ccccc3)c(=O)c3ccc(N4CCSCC4)cc32)cc1
Given back: 5.62

Asked: Return the recorded pIC50 value; entry: O=C(O)c1ccc(OCCn2c(=O)c3ccccc3n(C(c3ccccc3)c3ccccc3)c2=O)cc1
Given back: 5.00

Asked: Return the recorded pIC50 value; entry: O=C(O)Cc1ccc(Cn2c(=O)c3cc(Br)ccc3n(C(c3ccccc3)c3ccccc3)c2=O)cc1
Given back: 4.92

Asked: Return the recorded pIC50 value; entry: O=C(O)c1ccc(OC/C=C/Cn2c(=O)n(C(c3ccccc3)c3ccccc3)c(=O)c3ccc([N+](=O)[O-])cc32)cc1
Given back: 6.00

Asked: Return the recorded pIC50 value; entry: O=C(O)c1ccc(OC/C=C/Cn2c(=O)n(C(c3ccccc3)c3ccccc3)c(=O)c3ccc(Sc4ccccc4)cc32)cc1
Given back: 5.68

Asked: Return the recorded pIC50 value; entry: O=C(O)c1ccc(OC/C=C/Cn2c(=O)n(C(c3ccccc3)c3ccccc3)c(=O)c3ccccc32)cc1
Given back: 5.52

Asked: Return the recorded pIC50 value; entry: O=C(O)c1ccc(OC/C=C/Cn2c(=O)n(C(c3ccccc3)c3ccccc3)c(=O)c3ccc(Cl)cc32)cc1
Given back: 6.00

Asked: Return the recorded pIC50 value; entry: O=C(O)c1ccc(OCCn2c(=O)c3ccc(Cl)cc3n(C(c3ccccc3)c3ccccc3)c2=O)cc1
Given back: 5.40

Asked: Return the recorded pIC50 value; entry: O=C(O)C1CC1Cn1c(=O)c2cc(Br)ccc2n(C(c2ccccc2)c2ccccc2)c1=O (configuration not stated)
Given back: 3.92

Asked: Return the recorded pIC50 value; entry: O=C(O)c1ccc(OC/C=C/Cn2c(=O)n(C(c3ccccc3)c3ccccc3)c(=O)c3cc(F)ccc32)cc1
Given back: 5.22

Asked: Return the recorded pIC50 value; entry: O=C(O)c1ccc(OCCCCCCn2c(=O)n(C(c3ccccc3)c3ccccc3)c(=O)c3ccccc32)cc1
Given back: 4.33

Asked: Return the recorded pIC50 value; entry: O=C(O)c1ccc(OCCCCn2c(=O)n(C(c3ccccc3)c3ccccc3)c(=O)c3ccc(Cl)cc32)cc1
Given back: 5.60

Asked: Return the recorded pIC50 value; entry: Nc1ccc2c(=O)n(C(c3ccccc3)c3ccccc3)c(=O)n(C/C=C/COc3ccc(C(=O)O)cc3)c2c1
Given back: 5.05

Asked: Return the recorded pIC50 value; entry: COc1ccc2c(=O)n(C(c3ccccc3)c3ccccc3)c(=O)n(C/C=C/COc3ccc(C(=O)O)cc3)c2c1
Given back: 5.52

Asked: Return the recorded pIC50 value; entry: O=C(O)c1ccc(OC/C=C/Cn2c(=O)n(C(c3ccccc3)c3ccccc3)c(=O)c3ccc(-n4cncn4)cc32)cc1
Given back: 5.96

Asked: Return the recorded pIC50 value; entry: O=C(O)c1ccc(OC/C=C\Cn2c(=O)c3ccccc3n(C(c3ccccc3)c3ccccc3)c2=O)cc1
Given back: 4.60

Asked: Return the recorded pIC50 value; entry: Cc1cccc(C)c1CS(=O)(=O)NCCc1c(CCCc2ccc(C(=O)O)cc2)c2cc(Cl)ccc2n1C(c1ccccc1)c1ccccc1
Given back: 7.85

Asked: Return the recorded pIC50 value; entry: O=C(O)c1ccc(OC/C=C\Cn2c(=O)n(C(c3ccccc3)c3ccccc3)c(=O)c3cc(Cl)ccc32)cc1
Given back: 4.40

Asked: Return the recorded pIC50 value; entry: O=C(O)c1ccc(OC/C=C/Cn2c(=O)c3cc(F)ccc3n(C(c3ccccc3)c3ccccc3)c2=O)cc1
Given back: 5.25

Asked: Return the recorded pIC50 value; entry: O=C(O)Cc1coc(-c2ccc(Cn3c(=O)n(C(c4ccccc4)c4ccccc4)c(=O)c4ccccc43)cc2)n1
Given back: 3.85

Asked: Return the recorded pIC50 value; entry: O=C(O)c1ccc(OC/C=C/Cn2c(=O)c3ccc(Cl)cc3n(C(c3ccccc3)c3ccccc3)c2=O)cc1
Given back: 5.35

Asked: Return the recorded pIC50 value; entry: O=C(O)c1ccc(OC/C=C/Cn2c(=O)n(C(c3ccccc3)c3ccccc3)c(=O)c3ccc(N4CCOCC4)cc32)cc1
Given back: 5.66

Asked: Return the recorded pIC50 value; entry: CS(=O)(=O)c1ccc2c(=O)n(C(c3ccccc3)c3ccccc3)c(=O)n(C/C=C/COc3ccc(C(=O)O)cc3)c2c1
Given back: 4.82

Asked: Return the recorded pIC50 value; entry: O=C(O)c1ccc(OC/C=C/Cn2c(=O)c3ccccc3n(C(c3ccccc3)c3ccccc3)c2=O)cc1
Given back: 5.70

Asked: Return the recorded pIC50 value; entry: O=C(O)c1ccc(OC/C=C\Cn2c(=O)n(C(c3ccccc3)c3ccccc3)c(=O)c3ccc(Cl)cc32)cc1
Given back: 4.52

Asked: Return the recorded pIC50 value; entry: O=C(O)c1ccc(OC/C=C/Cn2c(=O)n(C(c3ccccc3)c3ccccc3)c(=O)c3ccc(Oc4ccccc4)cc32)cc1
Given back: 5.80

Asked: Return the recorded pIC50 value; entry: O=C(O)c1ccc(OC/C=C\Cn2c(=O)c3ccc(Cl)cc3n(C(c3ccccc3)c3ccccc3)c2=O)cc1
Given back: 4.22

Asked: Return the recorded pIC50 value; entry: O=C(O)c1ccc(OC/C=C/Cn2c(=O)n(C(c3ccccc3)c3ccccc3)c(=O)c3cc(Br)ccc32)cc1
Given back: 5.05

Asked: Return the recorded pIC50 value; entry: O=C(O)Cc1ccc(Cn2c(=O)n(C(c3ccccc3)c3ccccc3)c(=O)c3ccccc32)cc1
Given back: 3.59

Asked: Return the recorded pIC50 value; entry: Cc1ccc2c(=O)n(C(c3ccccc3)c3ccccc3)c(=O)n(C/C=C/COc3ccc(C(=O)O)cc3)c2c1
Given back: 5.55

Asked: Return the recorded pIC50 value; entry: O=C(O)c1ccc(OCCCCCCCn2c(=O)n(C(c3ccccc3)c3ccccc3)c(=O)c3ccccc32)cc1
Given back: 4.15

----------
Procedure Details: Inhibition of cytosolic phospholipase A2alpha by GLU micelle assay
Exercise: state measured IC50 for each of the compounds provided.
Write it as a number; the unit µM goes unstated.

Asked: Return the recorded IC50 value; entry: COC(=O)C1CCN(c2ccc3c(=O)n(C(c4ccccc4)c4ccccc4)c(=O)n(C/C=C/COc4ccc(C(=O)O)cc4)c3c2)CC1
Given back: 1.8

Asked: Return the recorded IC50 value; entry: O=C(O)c1ccc(OC/C=C/Cn2c(=O)n(C(c3ccccc3)c3ccccc3)c(=O)c3ccc(F)cc32)cc1
Given back: 1.4

Asked: Return the recorded IC50 value; entry: O=C(O)c1ccc(Cn2c(=O)c3ccc(Cl)cc3n(C(c3ccccc3)c3ccccc3)c2=O)cc1
Given back: 80

Asked: Return the recorded IC50 value; entry: O=C(O)c1ccc(OC/C=C/Cn2c(=O)n(C(c3ccccc3)c3ccccc3)c(=O)c3cc(Cl)ccc32)cc1
Given back: 10

Asked: Return the recorded IC50 value; entry: O=C(O)CCCOc1ccc(Cn2c(=O)n(C(c3ccccc3)c3ccccc3)c(=O)c3ccccc32)cc1
Given back: 40

Asked: Return the recorded IC50 value; entry: O=C(O)c1ccc(Cn2c(=O)c3cc(Cl)ccc3n(C(c3ccccc3)c3ccccc3)c2=O)cc1
Given back: 90

Asked: Return the recorded IC50 value; entry: O=C(O)COc1ccc(Cn2c(=O)n(C(c3ccccc3)c3ccccc3)c(=O)c3ccccc32)cc1
Given back: 360

Asked: Return the recorded IC50 value; entry: O=C(O)c1ccc(OC/C=C\Cn2c(=O)n(C(c3ccccc3)c3ccccc3)c(=O)c3cc(F)ccc32)cc1
Given back: 40

Asked: Return the recorded IC50 value; entry: O=C(O)c1ccc(OCCCn2c(=O)n(C(c3ccccc3)c3ccccc3)c(=O)c3ccccc32)cc1
Given back: 50

----------
Exercise: state measured solubility at 18 h for each of the compounds provided.
Procedure Details: Aqueous solubility after 18 hrs at pH 7.4
Type: physicochemical

Asked: Return the recorded solubility at 18 h value; entry: O=C(O)c1ccc(OC/C=C/Cn2c(=O)n(C(c3ccccc3)c3ccccc3)c(=O)c3ccc(-n4cncn4)cc32)cc1
Given back: > 100 µg/mL

Asked: Return the recorded solubility at 18 h value; entry: CS(=O)(=O)c1ccc2c(=O)n(C(c3ccccc3)c3ccccc3)c(=O)n(C/C=C/COc3ccc(C(=O)O)cc3)c2c1
Given back: > 100 µg/mL

Asked: Return the recorded solubility at 18 h value; entry: Nc1ccc2c(=O)n(C(c3ccccc3)c3ccccc3)c(=O)n(C/C=C/COc3ccc(C(=O)O)cc3)c2c1
Given back: > 100 µg/mL

----------
Test system: MC9
Procedure Details: Inhibition of LTB4 production in DNP-BSA-stimulated mouse MC9 cells at 5 uM treated 15 mins before DNP-BSA challenge measured after 4 mins
Assay type: functional
Experimental Readout: inhibition at 5 µM (%)
Write it as a number; the unit % goes unstated.

Asked: Provide inhibition at 5 µM, tested on MC9, for O=C(O)c1ccc(OC/C=C/Cn2c(=O)c3ccccc3n(C(c3ccccc3)c3ccccc3)c2=O)cc1 .
Given back: 98

Asked: Provide inhibition at 5 µM, tested on MC9, for O=C(O)c1ccc(OC/C=C/Cn2c(=O)n(C(c3ccccc3)c3ccccc3)c(=O)c3ccc(F)cc32)cc1 .
Given back: 99

Asked: Provide inhibition at 5 µM, tested on MC9, for COc1ccc2c(=O)n(C(c3ccccc3)c3ccccc3)c(=O)n(C/C=C/COc3ccc(C(=O)O)cc3)c2c1 .
Given back: 99

Asked: Provide inhibition at 5 µM, tested on MC9, for O=C(O)c1ccc(OC/C=C/Cn2c(=O)n(C(c3ccccc3)c3ccccc3)c(=O)c3ccc(Cl)cc32)cc1 .
Given back: 98

Asked: Provide inhibition at 5 µM, tested on MC9, for O=C(O)c1ccc(OC/C=C/Cn2c(=O)n(C(c3ccccc3)c3ccccc3)c(=O)c3ccc(-n4cncn4)cc32)cc1 .
Given back: 100
